Each entry below carries its recorded EC50.
Biological target: ERβ (Homo sapiens, UniProt Q92731)
Sequence (Q92731 whole entry, species assumed): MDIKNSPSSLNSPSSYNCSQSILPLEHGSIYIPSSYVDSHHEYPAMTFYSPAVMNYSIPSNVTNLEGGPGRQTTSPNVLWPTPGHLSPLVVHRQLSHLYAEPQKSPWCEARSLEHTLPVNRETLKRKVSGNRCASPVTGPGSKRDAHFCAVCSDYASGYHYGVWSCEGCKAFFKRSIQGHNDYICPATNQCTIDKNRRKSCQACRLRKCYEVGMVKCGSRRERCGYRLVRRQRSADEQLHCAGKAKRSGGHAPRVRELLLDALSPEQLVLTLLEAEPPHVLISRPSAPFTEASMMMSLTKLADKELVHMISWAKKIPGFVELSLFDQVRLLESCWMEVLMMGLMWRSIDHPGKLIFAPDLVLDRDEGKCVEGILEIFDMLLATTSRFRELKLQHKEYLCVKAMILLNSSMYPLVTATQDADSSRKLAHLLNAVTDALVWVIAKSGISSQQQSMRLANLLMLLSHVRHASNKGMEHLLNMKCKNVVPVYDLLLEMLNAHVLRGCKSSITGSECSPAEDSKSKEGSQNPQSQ
Assay: Luciferase reporter gene assay (3*ERE) in HEK293 cells, ERβ
Format: cell-based
Details: 48 hours with test compounds, read-out: Luciferase ERβ pEC50 (converted)
Quick note: give the figure in nM, leave out the unit.

Some solved cases for reference:
molecule	tested-on	EC50, nM
Oc1ccc(C23CCCCCC2Oc2c(F)cccc23)cc1 (centres unmarked)	ERβ (Homo sapiens, UniProt Q92731)	0.631
Oc1ccc(C23CCCCCC2Oc2cccc(F)c23)cc1 (single isomer, unassigned) [Compound 231]	ERβ (Homo sapiens, UniProt Q92731)	0.158
Oc1ccc(C23CCCCCC2Oc2cccc(F)c23)cc1 (single isomer, unassigned) [Compound 232]	ERβ (Homo sapiens, UniProt Q92731)	7.94

# input molecule: Oc1ccc(C23CCCCC=C2Oc2cccc(F)c23)cc1 (centres unmarked) ; wanted: its EC50
316

Requested read-out: EC50. Entry: Oc1ccc(C23CCCCC2Oc2ccccc23)cc1 (centres unmarked)
7.94

Requested field: EC50. Item: Oc1ccc(C23CCCCC2Oc2cccc(F)c23)cc1 (centres unmarked)
2.51

What value of EC50 has been reported for the following molecule? Oc1ccc(C23CCCCCC2Oc2ccccc23)cc1 (centres unmarked)
0.316

May I ask what EC50 has been recorded for Oc1ccc(C23CCCCCC2Oc2ccc(F)cc23)cc1 (centres unmarked) ?
0.1

---

Biological target: ERα (Homo sapiens)
Sequence (P03372 whole entry, species assumed): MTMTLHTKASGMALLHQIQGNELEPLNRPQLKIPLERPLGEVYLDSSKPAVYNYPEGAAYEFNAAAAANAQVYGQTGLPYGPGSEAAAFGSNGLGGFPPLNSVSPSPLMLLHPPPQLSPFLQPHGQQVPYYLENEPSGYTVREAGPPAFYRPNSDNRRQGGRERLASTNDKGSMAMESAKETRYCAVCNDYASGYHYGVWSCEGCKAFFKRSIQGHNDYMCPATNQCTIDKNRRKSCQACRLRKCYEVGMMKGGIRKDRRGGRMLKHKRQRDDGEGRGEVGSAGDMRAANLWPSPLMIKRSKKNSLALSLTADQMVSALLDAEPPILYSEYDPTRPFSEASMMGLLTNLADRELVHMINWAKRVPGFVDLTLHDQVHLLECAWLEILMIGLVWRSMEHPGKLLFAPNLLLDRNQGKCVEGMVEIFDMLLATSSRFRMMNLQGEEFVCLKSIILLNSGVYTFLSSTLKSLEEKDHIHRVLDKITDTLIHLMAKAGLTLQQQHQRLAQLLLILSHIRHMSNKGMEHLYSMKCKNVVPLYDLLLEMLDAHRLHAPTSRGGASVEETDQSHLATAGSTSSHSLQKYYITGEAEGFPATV
Experiment: R-SAT (Receptor Selection and Amplification Technology) functional assay, ERα
Assay type: cell-based
Set-up: expressed in transfected cells; host or cells: NIH-3T3 fibroblasts, transient transfection
Conditions: NIH-3T3 fibroblasts transfected with receptor; na = not active; read-out: R-SAT ERα pEC50 (converted)
Quick list: EC50 per entry.
Report the figure in µM without appending any unit label.

Write down the reported EC50 of Oc1ccc(C23CCCCCC2Oc2ccc(F)cc23)cc1 (stereo not drawn) , test system: ERα (Homo sapiens).
0.398

Item Oc1ccc(C23CCCCCC2Oc2c(F)cccc23)cc1 (stereo not drawn) with ERα (Homo sapiens) - EC50?
0.398

Give EC50 (ERα (Homo sapiens)) of the following compound: Oc1ccc(C23CCCCCC2Oc2ccccc23)cc1 (stereo not drawn)
0.398

// provenance: patent US8470872B2
